GI50 values by entry
- System: UACC-62
- measurement description: NCI tumour cell line growth inhibition, 48 h
Active and inactive are the calls of the source. No stated cut-off is given here; in the data, active = GI50 up to about 1.1 µM and inactive = higher.
metric: GI50

molecule | system name | metric | result
COc1ccc(/C=C2\Sc3nnc(C)n3N=C2c2cc(F)c(Cl)cc2Cl)cc1OC | UACC-62 | GI50 | 16.7 µM (inactive)
COC(=O)c1ccc(NCC2=CC(=O)C=CC2=O)cc1O | UACC-62 | GI50 | 15.7 µM (inactive)
c1ccc(COC2C3COC(O3)C(OCc3ccccc3)C2OCc2ccccc2)cc1 (centres undefined) | UACC-62 | GI50 | > 100 µM (inactive)
CCCCCCCCCCCCCCCCCC(=O)OCC(COC1OC(COP(=O)(O)O)C(O)C(O)C1O)OC(=O)CCCCCCCCCCCCCCCCC (centres undefined) | UACC-62 | GI50 | 8.57 µM (inactive)
Cc1cc(C)c2c(=O)n(CC(O)CN3CCN(c4ncccn4)CC3)sc2n1 (centres undefined) | UACC-62 | GI50 | 17.8 µM (inactive)
CN/N=C(\C(=O)Nc1ccc([N+](=O)[O-])cc1[N+](=O)[O-])C1NC(=O)NC1=O (centres undefined) | UACC-62 | GI50 | > 100 µM (inactive)
Cn1c(=O)c2/c(n(C)c1=O)=N\C=c1\c(=O)n(C)c(=O)n(C)\c1=N\C=2 | UACC-62 | GI50 | > 100 µM (inactive)
O=c1c2cn[nH]c2nc2scc(-c3ccc(Cl)cc3)n12 | UACC-62 | GI50 | > 100 µM (inactive)
Cc1cccc(C)c1NC(=O)/C(Cl)=C(/Cl)C(=O)O | UACC-62 | GI50 | 13.7 µM (inactive)
Cc1ccnc2nc(-c3ccc(F)cc3)cc(O)c12 | UACC-62 | GI50 | 16 µM (inactive)
O=C(/C=C/c1ccc(OCCCOc2ccc(/C=C/C(=O)c3ccc(Cl)cc3)cc2)cc1)c1ccc(Cl)cc1 | UACC-62 | GI50 | > 100 µM (inactive)
N#C[BH2-][n+]1cn(C2CC(OP(=O)(O)OCC3OC(n4ccc(N)nc4=O)CC3O)C(CO)O2)c2nc(N)[nH]c(=O)c21 (centres undefined) | UACC-62 | GI50 | > 100 µM (inactive)
C[C@H](CCC(=O)O)[C@H]1CC[C@H]2[C@@H]3[C@@H](O)C[C@@H]4C[C@H](O)CC[C@]4(C)[C@H]3C[C@H](O)[C@]12C | UACC-62 | GI50 | > 100 µM (inactive)
CSC(=S)NNC(=O)c1ccncc1 | UACC-62 | GI50 | 16.5 µM (inactive)
COc1ccc(-c2cc(O)c3cccnc3n2)cc1 | UACC-62 | GI50 | 23.2 µM (inactive)
COC1/C=C/C(C)C(C(C)C(OC)C(C)CCC(=O)C(C)C(CCC(=O)O)OC)OC(=O)/C=C/C=C(\C)CC(OC)CC2=CC(=O)O[C@@H](C(C)C(OC)CC(OC)/C=C/C(C)C(OC)C1)[C@H]2O (some centres undefined) | UACC-62 | GI50 | 0.787 µM (active)
[N-]=[N+]=Nc1ccc2c(c1)Sc1ccccc1N2CCCCN1CCN(Cc2ccc(C(=O)c3ccc(CSCC(N)C(=O)O)cc3)cc2)CC1 (centres undefined) | UACC-62 | GI50 | 11.3 µM (inactive)
COC(=O)c1ccc(/C=C/c2cc(O)ccc2O)cc1 | UACC-62 | GI50 | 2.87 µM (inactive)
NC(=S)N/N=C1\CCCCC1C(O)(C(F)(F)Cl)C(F)(F)Cl (centres undefined) | UACC-62 | GI50 | > 10 µM (inactive)

Every entry's value here was drawn from ChEMBL document CHEMBL1201862.
